- Assay Comment: chemical genetic growth profiling, strain panel (AID 1159580);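 note: tested at 20 µM; growth read once vehicle control cultures reached saturation at 30 °C; 1 = growth at the plate median or of vehicle wells; lower values mean less growth of the strain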
- Condition Info: S. cerevisiae deletion strains, growth OD, locus YJL187C, strain SWE1 (second series), active compounds read low
In all, about 5,500 compounds went through this assay and about 2,000 (36%) were called active. About 18% were inconclusive and are not listed. Some of the results follow.
Overview of reported normalized growth across a group of compounds:
Measure Name: normalized growth

- CCOc1ccc(C(=O)c2ccc(O)c(O)c2O)cc1: 0.632
- COc1ccc(C(=O)c2ccc(O)cc2)c(O)c1O: 0.998
- NC1C[C@H]1c1ccccc1 (stereo partly drawn): 1.01

====

Overview of reported normalized growth across a group of compounds:
- Assay Comment: chemical genetic growth profiling, strain panel (AID 1159580);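 note: tested at 20 µM; growth read once vehicle control cultures reached saturation at 30 °C; 1 = growth at the plate median or of vehicle wells; lower values mean less growth of the strain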
- Condition Info: S. cerevisiae deletion strains, growth OD, locus YLR384C, strain iki3, active compounds read low
Hit rate of the full screen: of about 5,500 compounds, about 2,000 (36%) were called active. Inconclusive results (about 18%) are left out. The list shows a part of the results. Where a SMILES comes first, the peptide text is derived from it. Bridges are numbered along the chain shown (N, C = ends). Side-chain parts run from the residue outwards. [ ]: non-standard residue; d: D form. The star is where a group is joined. Octanoyl(6-Me) = CCC(C)CCCCC(=O)*; X1 = CCC(C)C(N)C1=NC(C(=O)*)CS1; Orn = NCCC[CH](N)C(=O)O; Dab = NCC[CH](N)C(=O)O
Measure Name: normalized growth

• CN1CCN(CC(=O)N2c3ccccc3C(=O)Nc3cccnc32)CC1 = 1.02
• COc1cc2c(cc1OC)[C@@]13CCN4CC5=CCOC6CC(=O)N2C1[C@H]6[C@H]5C[C@H]43 (stereo partly specified) = 0.995
• CN1CCN(CCC=C2c3ccccc3Sc3ccc(S(=O)(=O)N(C)C)cc32)CC1 = 1.02
• CC[C@@H](CO)NC(=O)[C@@H]1C=C2c3cccc4[nH]cc(c34)C[C@H]2N(C)C1 = 0.997
• CC(=O)CC1CCCCN1 (stereo unspecified) = 1.01
• NC[C@H]1O[C@H](O[C@H]2C(O[C@@H]3O[C@H](CO)[C@@H](O)[C@H]3O)[C@@H](O)[C@H](N)C[C@@H]2N)[C@H](N)[C@@H](O)[C@@H]1O (stereo partly specified) = 0.985
• NC[C@H]1O[C@H](O[C@H]2[C@H](O)[C@@H](O[C@H]3O[C@H](CO)[C@@H](O)[C@H](N)[C@H]3O)[C@H](N)C[C@@H]2N)[C@H](N)C[C@@H]1O = 1.02
• CCC(C)C(N)C1=NC(C(=O)NC(CC(C)C)C(=O)NC(CCC(=O)O)C(=O)NC(C(=O)NCCCCC2NC(=O)C(CC(N)=O)NC(=O)C(CC(=O)O)NC(=O)C(Cc3cnc[nH]3)NC(=O)C(Cc3ccccc3)NC(=O)C(C(C)CC)NC(=O)C(CCCN)NC2=O)C(C)CC)CS1 (stereo not drawn) (cyclo(DNK([Ile-Glu-Leu-X1])[Orn]IFH); configuration not given here) = 0.993
• OC(c1cc(C(F)(F)F)nc2c(C(F)(F)F)cccc12)C1CCCCN1 (stereo unspecified) = 1.01
• NCCNCCNCCN = 0.999
• CCC(C)CCCCC(=O)NC(CCN)C(=O)NC(C(=O)NC(CCN)C(=O)NC1CCNC(=O)C(C(C)O)NC(=O)C(CCN)NC(=O)C(CCN)NC(=O)C(CC(C)C)NC(=O)C(Cc2ccccc2)NC(=O)C(CCN)NC1=O)C(C)O (stereo unspecified) ({Octanoyl(6-Me)}-[Dab]T[Dab][Dab][Dab]FL[Dab][Dab]T; lactam 4-C; configuration not given here) = 0.981

Provenance of the data: PubChem BioAssay AID1159580
